These measurements were taken from patent EP3353259B1.

Overview of recorded Degradation time after 7 days @ 40°C for various compounds
Numeric only. Scale: h

CCCCCCCCSc1nc(Nc2cc(C(C)(C)C)c(O)c(C(C)(C)C)c2)nc(SCCCCCCCC)n1 :: 9
CC(C)(C)c1cc(CCC(=O)OCCSCCOC(=O)CCc2cc(C(C)(C)C)c(O)c(C(C)(C)C)c2)cc(C(C)(C)C)c1O :: 2
Cc1cc(CCC(=O)OCCOCCOCCOC(=O)CCc2cc(C)c(O)c(C(C)(C)C)c2)cc(C(C)(C)C)c1O :: 2
CC(C)(C)c1cc(CCC(=O)OCC(COC(=O)CCc2cc(C(C)(C)C)c(O)c(C(C)(C)C)c2)(COC(=O)CCc2cc(C(C)(C)C)c(O)c(C(C)(C)C)c2)COC(=O)CCc2cc(C(C)(C)C)c(O)c(C(C)(C)C)c2)cc(C(C)(C)C)c1O :: 3

Moving on to another compound below.
Bench note: what Degradation time after 7 days @ 40°C did Cc1c(Cc2cc(C(C)(C)C)c(O)c(C(C)(C)C)c2)c(C)c(Cc2cc(C(C)(C)C)c(O)c(C(C)(C)C)c2)c(C)c1Cc1cc(C(C)(C)C)c(O)c(C(C)(C)C)c1 show?
21

###

Overview of recorded Relative decrease degradation time after 7days @ 40°C for various molecules
Numeric only. Scale: %

A selection of reference data follows.
CC(C)(C)c1cc(CCC(=O)OCC(COC(=O)CCc2cc(C(C)(C)C)c(O)c(C(C)(C)C)c2)(COC(=O)CCc2cc(C(C)(C)C)c(O)c(C(C)(C)C)c2)COC(=O)CCc2cc(C(C)(C)C)c(O)c(C(C)(C)C)c2)cc(C(C)(C)C)c1O :: 13
CCCCCCCCSc1nc(Nc2cc(C(C)(C)C)c(O)c(C(C)(C)C)c2)nc(SCCCCCCCC)n1 :: 56
Cc1c(Cc2cc(C(C)(C)C)c(O)c(C(C)(C)C)c2)c(C)c(Cc2cc(C(C)(C)C)c(O)c(C(C)(C)C)c2)c(C)c1Cc1cc(C(C)(C)C)c(O)c(C(C)(C)C)c1 :: 62
Cc1cc(CCC(=O)OCCOCCOCCOC(=O)CCc2cc(C)c(O)c(C(C)(C)C)c2)cc(C(C)(C)C)c1O :: 22

Moving on to another molecule below.
Bench note: what Relative decrease degradation time after 7days @ 40°C did CC(C)(C)c1cc(CCC(=O)OCCSCCOC(=O)CCc2cc(C(C)(C)C)c(O)c(C(C)(C)C)c2)cc(C(C)(C)C)c1O show?
13

###

Overview of recorded Initial degradation Time for various compounds
Numeric only. Scale: h

A selection of reference data follows.
CC(C)(C)c1cc(CCC(=O)OCC(COC(=O)CCc2cc(C(C)(C)C)c(O)c(C(C)(C)C)c2)(COC(=O)CCc2cc(C(C)(C)C)c(O)c(C(C)(C)C)c2)COC(=O)CCc2cc(C(C)(C)C)c(O)c(C(C)(C)C)c2)cc(C(C)(C)C)c1O [Irganox 1010] :: 24
Cc1cc(CCC(=O)OCCOCCOCCOC(=O)CCc2cc(C)c(O)c(C(C)(C)C)c2)cc(C(C)(C)C)c1O [Irganox 245] :: 9
CCCCCCCCSc1nc(Nc2cc(C(C)(C)C)c(O)c(C(C)(C)C)c2)nc(SCCCCCCCC)n1 [Irganox 565] :: 16
Cc1c(Cc2cc(C(C)(C)C)c(O)c(C(C)(C)C)c2)c(C)c(Cc2cc(C(C)(C)C)c(O)c(C(C)(C)C)c2)c(C)c1Cc1cc(C(C)(C)C)c(O)c(C(C)(C)C)c1 [Irganox 1330] :: 34

Moving on to another compound below.
Bench note: what Initial degradation Time did CC(C)(C)c1cc(CCC(=O)OCCSCCOC(=O)CCc2cc(C(C)(C)C)c(O)c(C(C)(C)C)c2)cc(C(C)(C)C)c1O [Irganox 1035] show?
16
